System: HEK-293T
Protocol Notes: Multiplex assay against HEK293T
Assay type: toxicity, cell-based
Condition: human, 12 h, 1 µM, compound concentration 1 uM, replicate 2
Reported Population Tubulin-Different-Phenotype (%) values are given for each entry in this list.
Readout Name: Population Tubulin-Different-Phenotype (%)

INSERT INTO results (compound, test_result) VALUES
  ('Cc1cc(-c2ccc3c(c2)CC[C@H]3N2CC3(CCN(C(=O)Cc4cn5cc(C)sc5n4)CC3)C2)ncn1 [PF-5190457]', 22),
  ('CN1CCN2c3ccccc3Cc3ccccc3C2C1.Cl (stereo not given) [MIANSERIN HYDROCHLORIDE]', 17),
  ('Cc1nn(C)c2nc(NNC(=O)Nc3cc(Cl)nc(Cl)c3)cc(C(C)C)c12', 25),
  ('CSc1nc(NC2CCCC2)c([N+](=O)[O-])c(NC2CCCC2)n1 [GS-39783]', 27),
  ('Cl.Cl.OCCOCCN1CCN(C(c2ccccc2)c2ccc(Cl)cc2)CC1 (stereo not given) [HYDROXYZINE HYDROCHLORIDE]', 28);
